# System: Mycosphaerella graminicola; Anamorph: Septoria tritici
# protocol description: Leaf Blotch of Wheat (SEPTTR) disease control
# Type: in vivo
# experimental conditions: Zymoseptoria tritici, 72 h, 3 Day Curative, rate 121.5 g/H; read-out: SEPTTR 3 DC disease control
experimental readout: pest or weed control at 121.5 g/ha

Item COc1ccnc(C(=O)N[C@H]2CCC[C@H](Cc3ccccc3)[C@@H](OCC(C)C)[C@H](C)OC2=O)c1OCOC(=O)C(C)C with Mycosphaerella graminicola; Anamorph: Septoria tritici - pest or weed control at 121.5 g/ha?
80 to 100%

Form entry - test system: Mycosphaerella graminicola; Anamorph: Septoria tritici; read-out: pest or weed control at 121.5 g/ha; compound: COc1ccnc(C(=O)N[C@H]2CCC[C@H](CC3CCCCC3)[C@@H](OCC(C)C)[C@H](C)OC2=O)c1OCOC(C)=O
80 to 100%

Give recorded pest or weed control at 121.5 g/ha with Mycosphaerella graminicola; Anamorph: Septoria tritici for the following compound: CCOCC(=O)OCOc1c(OC)ccnc1C(=O)N[C@H]1CCC[C@H](CCC(C)C)[C@@H](OCC(C)C)[C@H](C)OC1=O
80 to 100%

Report pest or weed control at 121.5 g/ha for COc1ccnc(C(=O)N[C@H]2CCC[C@H](CC3CCCC3)[C@@H](OCC(C)C)[C@H](C)OC2=O)c1OC(C)=O tested on Mycosphaerella graminicola; Anamorph: Septoria tritici.
80 to 100%

What measured pest or weed control at 121.5 g/ha is associated with COc1ccc(C[C@H]2CCC[C@H](NC(=O)c3nccc(OC)c3OCOC(C)=O)C(=O)O[C@@H](C)[C@@H]2Oc2ccccc2)cc1 on Mycosphaerella graminicola; Anamorph: Septoria tritici?
80 to 100%

Checklist item: pest or weed control at 121.5 g/ha tested on Mycosphaerella graminicola; Anamorph: Septoria tritici, entry COc1ccnc(C(=O)N[C@H]2CCC[C@H](Cc3ccc(F)cc3F)[C@@H](OCC(C)C)[C@H](C)OC2=O)c1O , value?
0 to 80%

---

I'd be grateful if you could share measured pest or weed control at 100 ppm for these entries.
# System: Cercospora beticola
# protocol description: Leaf Spot of Sugar Beets (CERCBE) disease control
# Type: in vivo
# experimental conditions: Cercospora beticola, topical, 24 h, 1 Day Protectant, sugar beet, read-out: Disease Control CERCBE 1 DP

GET /values?readout=pest or weed control at 100 ppm&item= CCCO[C@@H]1[C@@H](Cc2ccccc2)CCC[C@H](NC(=O)c2nccc(OC)c2OC(=O)CCOC)C(=O)O[C@H]1C
80 to 100%

Would you mind telling me what pest or weed control at 100 ppm value was observed for COCC[C@H]1CCC[C@H](NC(=O)c2nccc(OC)c2OCOC(C)=O)C(=O)O[C@@H](C)[C@@H]1Oc1ccccc1 ?
0 to 80%

Find the recorded pest or weed control at 100 ppm belonging to COc1ccc(C[C@H]2CCC[C@H](NC(=O)c3nccc(OC)c3OCOC(C)=O)C(=O)O[C@@H](C)[C@@H]2Oc2ccccc2)cc1 and report it.
80 to 100%

What pest or weed control at 100 ppm value was documented for this compound, CCCO[C@@H]1[C@@H](Cc2ccc(F)cc2)CCC[C@H](NC(=O)c2nccc(OC)c2OCOC(C)=O)C(=O)O[C@H]1C ?
80 to 100%

Given the entry CCOCC(=O)OCOc1c(OC)ccnc1C(=O)N[C@H]1CCC[C@H](CCF)[C@@H](OCC(C)C)[C@H](C)OC1=O , report its measured pest or weed control at 100 ppm.
0 to 80%

Please report the recorded pest or weed control at 100 ppm for COc1ccnc(C(=O)N[C@H]2CCC[C@H](Cc3ccccc3)[C@@H](OCC(C)C)[C@H](C)OC2=O)c1OC(C)=O .
80 to 100%

So what does the record say about pest or weed control at 100 ppm for CCOCC(=O)OCOc1c(OC)ccnc1C(=O)N[C@H]1CCC[C@H](Cc2ccc(F)cc2F)[C@@H](OC(=O)c2ccco2)[C@H](C)OC1=O ?
80 to 100%

# query: pest or weed control at 100 ppm of entry CCOCC(=O)OCOc1c(OC)ccnc1C(=O)N[C@H]1CCC[C@H](CC2CCCCC2)[C@@H](OCC(C)C)[C@H](C)OC1=O
80 to 100%

Any idea what pest or weed control at 100 ppm was measured for COc1ccnc(C(=O)N[C@H]2CCC[C@H](Cc3ccc(F)cc3F)[C@@H](OC(=O)c3ccco3)[C@H](C)OC2=O)c1OCOC(C)=O ?
0 to 80%

Which pest or weed control at 100 ppm is reported for this compound? CCCO[C@@H]1[C@@H](CCC(C)C)CCC[C@H](NC(=O)c2nccc(OC)c2OCOC(=O)COCC)C(=O)O[C@H]1C
80 to 100%

Look up pest or weed control at 100 ppm for this compound: CCOCC(=O)OCOc1c(OC)ccnc1C(=O)N[C@H]1CCC[C@H](Cc2ccccc2)[C@@H](OCC2CC2)[C@H](C)OC1=O
80 to 100%

Given CC[C@H]1CCC[C@H](NC(=O)c2nccc(OC)c2OC(C)=O)C(=O)O[C@@H](C)[C@@H]1Oc1ccccc1 , state its recorded pest or weed control at 100 ppm.
80 to 100%

Query (compound): CCCO[C@@H]1[C@@H](CCC(C)C)CCC[C@H](NC(=O)c2nccc(OC)c2OCOC(C)=O)C(=O)O[C@H]1C ; field requested: pest or weed control at 100 ppm
80 to 100%

Look at this compound and give its reported pest or weed control at 100 ppm. COc1ccnc(C(=O)N[C@H]2CCC[C@H](Cc3ccccc3)[C@@H](OCC3CC3)[C@H](C)OC2=O)c1OCOC(C)=O
80 to 100%

Which pest or weed control at 100 ppm is reported for this compound? COc1ccnc(C(=O)N[C@H]2CCC[C@H](Cc3ccccc3)[C@@H](Oc3ccccc3)[C@H](C)OC2=O)c1OCOC(C)=O
80 to 100%

Could you share which pest or weed control at 100 ppm value was measured for COc1ccnc(C(=O)N[C@H]2CCC[C@H](CC(F)F)[C@@H](Oc3ccccc3)[C@H](C)OC2=O)c1OC(C)=O ?
80 to 100%

Bench note: what pest or weed control at 100 ppm did CCCO[C@@H]1[C@@H](Cc2ccccc2)CCC[C@H](NC(=O)c2nccc(OC)c2OC(C)=O)C(=O)O[C@H]1C show?
80 to 100%

# lookup: pest or weed control at 100 ppm of CCOCC(=O)OCOc1c(OC)ccnc1C(=O)N[C@H]1CCC[C@H](Cc2ccccc2)[C@@H](OCC(C)C)[C@H](C)OC1=O
80 to 100%

What pest or weed control at 100 ppm value was documented for this compound, CCCO[C@@H]1[C@@H](Cc2ccc(F)cc2)CCC[C@H](NC(=O)c2nccc(OC)c2OCOC(=O)COCC)C(=O)O[C@H]1C ?
80 to 100%

State the recorded pest or weed control at 100 ppm for this entry: COc1ccnc(C(=O)N[C@H]2CCC[C@H](CCF)[C@@H](OCC(C)C)[C@H](C)OC2=O)c1OCOC(C)=O
80 to 100%

Can you share its pest or weed control at 100 ppm? I mean this compound: CCOCC(=O)OCOc1c(OC)ccnc1C(=O)N[C@H]1CCC[C@H](CCOC)[C@@H](Oc2ccccc2)[C@H](C)OC1=O
0 to 80%

pest or weed control at 100 ppm lookup needed for CCOCC(=O)OCOc1c(OC)ccnc1C(=O)N[C@H]1CCC[C@H](Cc2ccc(F)cc2)[C@@H](OCC2CC2)[C@H](C)OC1=O , thanks.
80 to 100%

Would you kindly share the measured pest or weed control at 100 ppm for C=C[C@H]1CCC[C@H](NC(=O)c2nccc(OC)c2OCOC(C)=O)C(=O)O[C@@H](C)[C@@H]1Oc1ccccc1 ?
80 to 100%

Item COc1ccnc(C(=O)N[C@H]2CCC[C@H](CC3CCCCC3)[C@@H](OCC(C)C)[C@H](C)OC2=O)c1OCOC(C)=O has what recorded pest or weed control at 100 ppm?
80 to 100%

Give the measured pest or weed control at 100 ppm of COc1ccnc(C(=O)N[C@H]2CCC[C@H](Cc3ccc(C)cc3)[C@@H](OCC(C)C)[C@H](C)OC2=O)c1OCOC(C)=O .
80 to 100%

---

# System: Mycosphaerella graminicola; Anamorph: Septoria tritici
# protocol description: Leaf Blotch of Wheat (SEPTTR) disease control
# Type: in vivo
# experimental conditions: Zymoseptoria tritici, 24 h, 1 Day Protectant, rate 100 ppm; read-out: SEPTTR 1 DP disease control
Hi there, I'd appreciate the recorded pest or weed control at 100 ppm for every entry that follows.

What does the data say about its pest or weed control at 100 ppm? Entry: COc1ccnc(C(=O)N[C@H]2CCC[C@H](Cc3ccc(F)cc3F)[C@@H](OCC(C)C)[C@H](C)OC2=O)c1O [Compound F59]
80 to 100%

Bench note: what pest or weed control at 100 ppm did COc1ccnc(C(=O)N[C@H]2CCC[C@H](Cc3ccc(F)cc3)[C@@H](OC(=O)C3CCCC3)[C@H](C)OC2=O)c1OCOC(C)=O [Compound F104] show?
80 to 100%

Data request, read-out pest or weed control at 100 ppm, for COc1ccnc(C(=O)N[C@H]2CCC[C@H](CCOCC3CC3)[C@@H](OCC3CC3)[C@H](C)OC2=O)c1OC(C)=O [Compound F83]
80 to 100%
